For each of the compounds below, state its pEC50.
# Test system: HCMV
# protocol_details: HCMV/HFF antiviral assay
# Type: cell-based
# assay_conditions: Human betaherpesvirus 5, HFF
pEC50: −log10 of the molar value.

Report pEC50 for `Nc1ncnc2c1ccn2[C@@H]1O[C@](F)(CO)[C@@H](O)[C@]1(F)Cl` please.
< 5.00

// query pEC50 value for entry `Nc1ncnc2c1ccn2[C@@H]1O[C@](F)(CO)[C@@H](O)[C@H]1O`
5.00 to 6.00

Item under review: `[N-]=[N+]=N[C@]1(CO)O[C@@H](n2ccc3c(N)ncnc32)[C@@](F)(Cl)[C@@H]1O` . Reported pEC50?
< 5.00

Please report the recorded pEC50 for `OC[C@@]1(F)O[C@@H](n2ccc3c(Cl)ncnc32)[C@H](O)[C@@H]1O` .
< 5.00

Please report the recorded pEC50 for `COc1ncnc2c1c(F)cn2[C@@H]1O[C@](F)(CO)[C@@H](O)[C@H]1O` .
5.00 to 6.00

For `Nc1nc2c(ncn2[C@@H]2O[C@](F)(CO)[C@@H](O)C2(F)F)c(=O)[nH]1` , what is its reported pEC50?
< 5.00

Which pEC50 is reported for this compound? `NC(=O)c1cn([C@@H]2O[C@](F)(CO)[C@@H](O)[C@H]2O)c2ncnc(N)c12`
6.00 to 7.00

Request the reported pEC50 associated with `OC[C@@]1(F)O[C@@H](n2ccc3c(F)ncnc32)[C@H](O)[C@@H]1O`
< 5.00

----------
# protocol_details: in vitro
# assay_conditions: human, h1 hela cells
Hi there, I'd appreciate the recorded CC50 for every entry that follows.

Record request: CC50 value, item `[N-]=[N+]=N[C@]1(CO)O[C@@H](n2ccc3c(N)ncnc32)[C@@](F)(Cl)[C@@H]1O`
> 99 µM

Reported CC50, compound `NC(=O)c1cc([C@@H]2O[C@](F)(COC(=O)c3ccccc3)[C@@H](O)[C@H]2O)n2ncnc(N)c12` : ____
1 to 10 µM

Given `[N-]=[N+]=N[C@]1(CO)C[C@@H](O)[C@H](n2ccc3c(N)ncnc32)O1` , state its recorded CC50.
> 99 µM

Suppose we examine the compound `CC(C)C(=O)OC[C@@]1(F)O[C@@H](n2ccc3c(N)ncnc32)[C@H](O)[C@@H]1O` ; what CC50 value has been reported?
10 to 99 µM

Which CC50 reading was recorded for the compound `OC[C@@]1(F)O[C@@H](n2ccc3c(Cl)ncnc32)[C@H](O)[C@@H]1O` ?
10 to 99 µM

State the recorded CC50 for this entry: `CSc1ncnc2c1ccn2[C@@H]1O[C@](F)(CO)[C@@H](O)[C@H]1O`
> 99 µM

What value of measured CC50 is listed for `Nc1ncnc2c1c(F)cn2[C@@H]1O[C@](F)(CO)[C@@H](O)[C@H]1O` ?
< 1 µM

Which measured CC50 value corresponds to `OC[C@@]1(F)O[C@@H](n2cc(Br)c3cncnc32)[C@H](O)[C@@H]1O` ?
1 to 10 µM

----------
# protocol_details: in vitro
# assay_conditions: human, hela-ace2 cells
Assign CC50 at 24 h to each entry below.

Which CC50 at 24 h is reported for this compound? CNc1nc(N)nc2c1ncn2[C@@H]1O[C@](F)(COP(=O)(N[C@@H](C)C(=O)OC(C)C)Oc2ccccc2)[C@@H](O)[C@]1(F)Cl (single isomer, unassigned) [Example 59]
> 99 µM

Entry `CC(=O)O[C@H]1[C@H](n2ncc(=O)[nH]c2=O)O[C@](F)(COC(=O)c2ccccc2)[C@H]1OC(C)=O` : reported CC50 at 24 h = ?
> 99 µM

Would you kindly share the measured CC50 at 24 h for CNc1nc(N)nc2c1ncn2[C@@H]1O[C@](F)(COP(=O)(N[C@@H](C)C(=O)OC(C)C)Oc2ccccc2)[C@@H](O)[C@]1(F)Cl (single isomer, unassigned) [Example 58] ?
> 99 µM

Would you kindly share the measured CC50 at 24 h for CCOc1nc(N)nc2c1ncn2[C@@H]1O[C@](F)(COP(=O)(N[C@@H](C)C(=O)OC(C)C)Oc2ccccc2)[C@@H](O)C1(F)F (stereo partly drawn) ?
10 to 99 µM

Looking for the measured CC50 at 24 h of `N#Cc1cn([C@@H]2O[C@](F)(CO)[C@@H](O)[C@H]2O)c2ncnc(N)c12` , can you help?
< 1 µM

Dear colleague, I am looking for the recorded CC50 at 24 h of the following compound: `Nc1nc2c(ncn2[C@H]2C[C@H](O)[C@@](F)(CO)O2)c(=O)[nH]1`
> 99 µM

# input compound: `COc1ncnc2c1c(C(N)=O)cn2[C@@H]1O[C@](F)(CO)[C@@H](O)[C@H]1O` ; wanted: its CC50 at 24 h
< 1 µM

Would you mind telling me what CC50 at 24 h value was observed for `COc1ncnc2c1ccn2[C@@H]1O[C@](F)(CO)C[C@H]1O` ?
> 99 µM

Consider the compound `C[C@]1(Cl)[C@H](n2cnc3c(=O)[nH]c(N)nc32)O[C@](F)(CO)[C@H]1O` and give its measured CC50 at 24 h.
> 99 µM

Item under review: `Nc1ncnc2c1c(Cl)cn2[C@@H]1O[C@](F)(CO)[C@@H](O)[C@H]1O` . Reported CC50 at 24 h?
1 to 10 µM

Need CC50 at 24 h of `CC(C)C(=O)OC[C@@]1(F)O[C@@H](n2ccc3c(N)ncnc32)[C@H](O)[C@@H]1O` , thanks.
1 to 10 µM

Name the recorded CC50 at 24 h for `C[C@]1(O)[C@H](n2ccc3c(N)ncnc32)O[C@](F)(CO)[C@H]1O` .
> 99 µM

So what does the record say about CC50 at 24 h for `Nc1ncnc2c1ccn2[C@@H]1O[C@](F)(CO)C[C@H]1O` ?
> 99 µM

Look up CC50 at 24 h for this compound: `C#C[C@]1(O)[C@H](n2ccc(N)nc2=O)O[C@](F)(CO)[C@H]1O`
> 99 µM

Any idea what CC50 at 24 h was measured for `Nc1ncnc2c1c(-c1nc3ccccc3s1)cn2[C@@H]1O[C@](F)(CO)[C@@H](O)C1(F)F` ?
1 to 10 µM
